testMethodNotes: Light transmittance of optical filter (dye-containing acrylic adhesive sheet, 1000 ppm dye)
Type: physicochemical
experimentalSetup: dye 1000 (wt)ppm in acrylic adhesive, 25 μm
List of Light Transmittance at 550 nm values.
Use % as the unit, but write only the number.

[[record]]
compound = "CC(C)(C)c1ccc(C2=c3nc(c4c5cccc6cccc(c3=4)c65)C(c3ccc(C(C)(C)C)cc3)=c3c4c(c5[n]3[Cu][n]3c2c2c(c3C(c3ccc(C(C)(C)C)cc3)=c3nc(c6c7cccc8cccc(c3=6)c87)C=5c3ccc(C(C)(C)C)cc3)-c3cccc5cccc-2c35)-c2cccc3cccc-4c23)cc1 [3-D]"
metric = "Light Transmittance at 550 nm"
reading = 38.1


Next item in the queue.
What Light Transmittance at 550 nm value was documented for this compound, CCCCCOc1ccc(C2=c3nc(c4c5cccc6cccc(c3=4)c65)C(c3ccc(OCCCCC)cc3)=c3c4c(c5[n]3[Cu][n]3c2c2c(c3C(c3ccc(OCCCCC)cc3)=c3nc(c6c7cccc8cccc(c3=6)c87)C=5c3ccc(OCCCCC)cc3)-c3cccc5cccc-2c35)-c2cccc3cccc-4c23)cc1 [1-2] ?
37.2

====

testMethodNotes: Light transmittance of optical filter (dye-containing acrylic adhesive sheet, 1000 ppm dye)
Format: physicochemical
experimentalSetup: dye 1000 (wt)ppm in acrylic adhesive, 25 μm
metric: T@550/T@525 Light Transmittance Ratio (%)
Report only the number, with the unit % understood.

Some solved entries appear below for comparison.
[[record]]
substancesmiles = "CC(C)(C)c1ccc(C2=c3nc(c4c5cccc6cccc(c3=4)c65)C(c3ccc(C(C)(C)C)cc3)=c3c4c(c5[n]3[Cu][n]3c2c2c(c3C(c3ccc(C(C)(C)C)cc3)=c3nc(c6c7cccc8cccc(c3=6)c87)C=5c3ccc(C(C)(C)C)cc3)-c3cccc5cccc-2c35)-c2cccc3cccc-4c23)cc1"
reading = 64

[[record]]
substancesmiles = "CCCCCCCCCCOc1ccc(C2=c3nc(c4c5cccc6cccc(c3=4)c65)C(c3ccc(OCCCCCCCCCC)cc3)=c3c4c(c5[n]3[Ni][n]3c2c2c(c3C(c3ccc(OCCCCCCCCCC)cc3)=c3nc(c6c7cccc8cccc(c3=6)c87)C=5c3ccc(OCCCCCCCCCC)cc3)-c3cccc5cccc-2c35)-c2cccc3cccc-4c23)cc1"
reading = 93

[[record]]
substancesmiles = "CCCCCOc1ccc(C2=c3nc(c4c5cccc6cccc(c3=4)c65)C(c3ccc(OCCCCC)cc3)=c3c4c(c5[n]3[Cu][n]3c2c2c(c3C(c3ccc(OCCCCC)cc3)=c3nc(c6c7cccc8cccc(c3=6)c87)C=5c3ccc(OCCCCC)cc3)-c3cccc5cccc-2c35)-c2cccc3cccc-4c23)cc1"
reading = 59

[[record]]
substancesmiles = "CCCCCCOc1ccc(C2=c3nc(c4c5cccc6cccc(c3=4)c65)C(c3ccc(OCCCCCC)cc3)=c3c4c(c5[n]3[Cu][n]3c2c2c(c3C(c3ccc(OCCCCCC)cc3)=c3nc(c6c7cccc8cccc(c3=6)c87)C=5c3ccc(OCCCCCC)cc3)-c3cccc5cccc-2c35)-c2cccc3cccc-4c23)cc1"
reading = 72


Any idea what T@550/T@525 Light Transmittance Ratio was measured for CCCCCCCCCCOc1ccc(C2=c3nc(c4c5ccc(Cl)c6c(Cl)ccc(c3=4)c65)C(c3ccc(OCCCCCCCCCC)cc3)=c3c4c(c5[n]3[Ni][n]3c2c2c(c3C(c3ccc(OCCCCCCCCCC)cc3)=c3nc(c6c7ccc(Cl)c8c(Cl)ccc(c3=6)c87)C=5c3ccc(OCCCCCCCCCC)cc3)-c3ccc(Cl)c5c(Cl)ccc-2c35)-c2ccc(Cl)c3c(Cl)ccc-4c23)cc1 ?
93

The origin of these recorded values is patent US20070293666A1.
